Taken from paper PMC1904291.

Target: T1, I-CreI GG (UniProt P05725 1-163, K142G;T143G)
T1 sequence: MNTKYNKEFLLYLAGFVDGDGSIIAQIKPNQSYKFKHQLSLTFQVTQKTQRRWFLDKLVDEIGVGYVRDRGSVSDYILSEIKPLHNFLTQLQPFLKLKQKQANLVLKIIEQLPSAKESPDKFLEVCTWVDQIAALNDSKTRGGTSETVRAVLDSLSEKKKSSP
Assay: EMSA
pKd: −log10 of the molar value.
endpoint.name: pKd

| binder | readout.number |
| --- | --- |
| 6-FAM I-CreI target duplex (dsDNA) DNA 1: GCAAAACGTCGTGAGACAGTTTGC DNA 2: GCAAACTGTCTCACGACGTTTTGC | 7.30 |
